# MEASUREMENT_TARGET: T1, soluble FGFR3c receptor protein (human, UniProt P22607 141-372)
# T1 sequence: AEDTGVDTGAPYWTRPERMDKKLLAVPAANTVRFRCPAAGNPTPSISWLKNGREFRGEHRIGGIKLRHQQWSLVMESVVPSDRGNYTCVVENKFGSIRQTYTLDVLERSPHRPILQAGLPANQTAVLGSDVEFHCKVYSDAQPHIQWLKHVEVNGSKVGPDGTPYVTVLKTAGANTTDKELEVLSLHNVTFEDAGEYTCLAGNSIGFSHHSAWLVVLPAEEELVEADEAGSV
# ASSAY: BLI Octet RED96, antibody on anti-hIgG Fc tip
PARAMETER: kon (M⁻¹ s⁻¹)
Give bare numbers, in M⁻¹ s⁻¹.

Go through the items and report each one's kon.
1. Vk10 combined with the VH of Ab15 (antibody, V domains shown, captured on anti-human IgG Fc tips) VH: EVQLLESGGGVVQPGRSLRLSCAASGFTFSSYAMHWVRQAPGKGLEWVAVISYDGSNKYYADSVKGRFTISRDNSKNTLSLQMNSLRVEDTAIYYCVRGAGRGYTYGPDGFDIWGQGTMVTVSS VL: DIVMTQSPDSLAVSLGERATISCTSSRSLLHSDGKTYVYWYQQKPGQPPKLLIYELSNRFSGVPDRFSGSGSRTDFTLTISSLQAEDVAVYYCMQYIEAPLTFGGGTKVEIK
2. Vk1 combined with the VH of Ab15 (antibody, V domains shown, captured on anti-human IgG Fc tips) VH: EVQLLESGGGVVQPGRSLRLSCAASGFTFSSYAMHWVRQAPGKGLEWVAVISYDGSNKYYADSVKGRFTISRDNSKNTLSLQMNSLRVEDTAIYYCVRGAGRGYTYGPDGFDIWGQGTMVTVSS VL: DIVMTQTPLSLSVTPGQPASISCTSSRSLLHSDGKTYLYWYLQKPGQPPQLLIYELSNRFSGVPDRFSGSGSRTDFTLKISRVEAEDVGVYYCMQYIEAPLTFGGGTKVEIK
3. Vk9 combined with the VH of Ab15 (antibody, V domains shown, captured on anti-human IgG Fc tips) VH: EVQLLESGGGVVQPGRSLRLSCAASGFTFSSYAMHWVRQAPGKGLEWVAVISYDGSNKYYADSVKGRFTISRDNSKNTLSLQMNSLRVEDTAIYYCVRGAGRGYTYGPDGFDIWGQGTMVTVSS VL: DIVMTQSPDSLAVSLGERATINCKSSQSLLHSDGKTYVYWYQQKPGQPPKLLIYELSNRFSGVPDRFSGSGSGTDFTLTISSLQAEDVAVYYCMQYIEAPLTFGGGTKVEIK

Response:
1: 134000; 2: 113000; 3: 138000
